B1: KLHDC10 (parent)
chain: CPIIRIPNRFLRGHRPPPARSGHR

- Variants of: B1
- experimentSummary: protein stability index of a GFP-peptide fusion (GPS, HEK-293T) (PSI 1-6); higher = more stable;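 also: lentivirally expressed fusions sorted by FACS into six bins by GFP to DsRed ratio, PSI derived from sequencing read proportions per bin multiplied by bin number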
- particulars: c terminus: a fixed tail appended
propertyName: protein stability index

Here's what some known entries look like.
I4D: 4.49
H23T: 2.66
R24G: 2.1
A19L: 1.46
C1N: 3.73

I am curious: what protein stability index value has been reported for `A19S` ?
1.8

Input `H14F`
1.83

Input `I4Y`
3.02

Input `I6Y`
4.09

Input `A19N`
2.23
